Source listed as paper PMC8205030.

Molecular target: microtubular protein isolated from calf brain (Bos taurus, UniProt P81947+Q6B856)
Construct: isolated from calf brain according to the modified Shelanski method; from tissue; host or cells: calf brain
Sequence (Q6B856 whole entry): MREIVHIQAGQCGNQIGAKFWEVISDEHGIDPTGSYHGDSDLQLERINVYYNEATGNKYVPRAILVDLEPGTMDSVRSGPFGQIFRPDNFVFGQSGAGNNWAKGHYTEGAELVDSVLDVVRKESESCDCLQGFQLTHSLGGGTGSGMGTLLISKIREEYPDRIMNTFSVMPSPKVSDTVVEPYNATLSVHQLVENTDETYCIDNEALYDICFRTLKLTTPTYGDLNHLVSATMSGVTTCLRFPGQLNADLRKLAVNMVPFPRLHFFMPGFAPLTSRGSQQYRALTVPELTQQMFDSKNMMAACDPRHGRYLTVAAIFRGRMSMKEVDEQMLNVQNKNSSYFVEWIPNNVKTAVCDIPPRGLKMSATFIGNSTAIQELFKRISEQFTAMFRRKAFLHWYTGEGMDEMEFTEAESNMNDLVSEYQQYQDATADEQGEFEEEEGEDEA
Sequence (P81947 whole entry): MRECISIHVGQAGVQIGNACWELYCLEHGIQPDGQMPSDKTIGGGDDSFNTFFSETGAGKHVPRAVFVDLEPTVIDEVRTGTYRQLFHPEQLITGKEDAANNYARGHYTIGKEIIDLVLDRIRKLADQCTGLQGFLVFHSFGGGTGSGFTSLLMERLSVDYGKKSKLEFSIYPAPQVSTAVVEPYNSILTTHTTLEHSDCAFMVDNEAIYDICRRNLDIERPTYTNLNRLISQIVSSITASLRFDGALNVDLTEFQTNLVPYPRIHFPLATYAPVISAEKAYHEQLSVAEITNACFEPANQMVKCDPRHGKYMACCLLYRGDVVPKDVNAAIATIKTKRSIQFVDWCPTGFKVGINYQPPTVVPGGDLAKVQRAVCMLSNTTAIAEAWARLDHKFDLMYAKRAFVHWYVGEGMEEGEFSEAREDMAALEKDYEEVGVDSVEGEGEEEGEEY
Experiment: Inhibition of tubulin polymerisation (turbidity)
Format: biochemical
Conditions: 10 µM compound, 1.5 mg/mL microtubular protein
Task for the reader: assign each of the following compounds its reported TPI % 10 µM.
Give just the number in %; leave the unit off.

### Prompt Would you kindly share the measured TPI % 10 µM for COc1ccc(S(=O)(=O)N(C(=O)OCc2ccccc2)c2cc(OC)cc(OC)c2)cc1 [Compound 7] ?
### Response 0

### Prompt Need TPI % 10 µM of COc1ccc(S(=O)(=O)N(Cc2ccccc2)c2cc(OC)cc(OC)c2Br)cc1 [Compound 10b] , thanks.
### Response 0

### Prompt Name the recorded TPI % 10 µM for COc1ccc(S(=O)(=O)N(C)c2cc(OC)c(OC)cc2OC)cc1 [Compound 33] .
### Response 0

### Prompt State the recorded TPI % 10 µM for this entry: COc1ccc(S(=O)(=O)N(CC#N)c2cc(OC)cc(OC)c2)cc1 [Compound 4]
### Response 0

### Prompt # lookup: TPI % 10 µM of CCN(c1cc(OC)c(Br)c(OC)c1)S(=O)(=O)c1ccc(OC)cc1 [Compound 9a]
### Response 0

====

Target: microtubular protein isolated from calf brain (Bos taurus, UniProt P81947+Q6B856)
Construct: isolated from calf brain according to the modified Shelanski method
Assay: Inhibition of tubulin polymerisation (turbidity)
Settings: in vitro tubulin polymerisation inhibition; read-out: TPI IC50
outcome_measure: IC50

### Prompt Quick check: IC50 of CCN(c1cc(OC)c(OC)cc1OC)S(=O)(=O)c1ccc(OC)cc1 [Compound 34] ?
### Response > 10 µM

### Prompt # get_value(readout='IC50', item= COc1ccc(S(=O)(=O)N(CC#N)c2cc(OC)c(OC)cc2Br)cc1 [Compound 16] )
### Response > 10 µM

### Prompt Look up IC50 for this molecule: COc1ccc(S(=O)(=O)N(C)c2cc(OC)cc(OC)c2Br)cc1 [Compound 8b]
### Response > 10 µM

### Prompt I'd like to know its IC50. The molecule in question is COc1ccc(S(=O)(=O)N(CC(=O)O)c2cc(OC)c(Br)cc2OC)cc1 [Compound 29]
### Response > 10 µM

### Prompt I have this molecule here, COc1ccc(S(=O)(=O)N(C(=O)OCc2ccccc2)c2cc(OC)cc(OC)c2)cc1 [Compound 7] , and I need its recorded IC50.
### Response > 10 µM

### Prompt So what does the record say about IC50 for CCN(c1cc(OC)c(Br)c(OC)c1)S(=O)(=O)c1ccc(OC)cc1 [Compound 9a] ?
### Response > 10 µM

### Prompt Looking for the measured IC50 of COc1ccc(S(=O)(=O)N(CC2CO2)c2cc(OC)c(Br)cc2OC)cc1 (centres unmarked) [Compound 28] , can you help?
### Response > 10 µM

### Prompt Which IC50 is listed for COc1ccc(S(=O)(=O)N(C)c2cc(OC)ccc2OC)cc1 [Compound 22] ?
### Response > 10 µM

### Prompt Look up IC50 for this molecule: COc1ccc(S(=O)(=O)N(C)c2ccc(OC)c(OC)c2)cc1 [Compound 12]
### Response > 10 µM

### Prompt # query: IC50 of entry COc1ccc(S(=O)(=O)N(C)c2cc(OC)cc(OC)c2)cc1 [Compound 2]
### Response > 10 µM

### Prompt Would you mind telling me what IC50 value was observed for COc1ccc(S(=O)(=O)Nc2cc(OC)c(OC)cc2Br)cc1 [Compound 13] ?
### Response > 10 µM

### Prompt // returns reported IC50 for input COc1ccc(S(=O)(=O)Nc2cccnc2Nc2ccc(O)cc2)cc1 [ABT-751, reference compound]
### Response 4.4 µM

### Prompt Given COc1ccc(S(=O)(=O)N(CC#N)c2cc(OC)cc(OC)c2)cc1 [Compound 4] , state its recorded IC50.
### Response > 10 µM

### Prompt Which IC50 is reported for this molecule? COc1ccc(S(=O)(=O)N(Cc2ccccc2)c2cc(OC)c(Br)c(OC)c2)cc1 [Compound 10a]
### Response > 10 µM

### Prompt Quick one: IC50 of COc1ccc(S(=O)(=O)N(CC#N)c2cc(OC)c(Br)cc2OC)cc1 [Compound 25] ?
### Response 7.6 µM

### Prompt Consider the molecule COc1ccc(S(=O)(=O)N(C)c2cc(OC)c(OC)cc2Br)cc1 [Compound 14] and give its measured IC50.
### Response > 10 µM

### Prompt Quick check: IC50 of CCOC(=O)CN(c1cc(OC)c(OC)cc1OC)S(=O)(=O)c1ccc(OC)cc1 [Compound 36] ?
### Response > 10 µM

### Prompt Quick check: IC50 of COc1ccc(S(=O)(=O)Nc2cc(OC)cc(OC)c2)cc1 [Compound 1] ?
### Response > 10 µM

### Prompt I have this molecule here, CCOC(=O)CN(c1cc(OC)cc(OC)c1)S(=O)(=O)c1ccc(OC)cc1 [Compound 5] , and I need its recorded IC50.
### Response > 10 µM

### Prompt IC50 for CCOC(=O)CN(c1cc(OC)c(OC)cc1Br)S(=O)(=O)c1ccc(OC)cc1 [Compound 17] ?
### Response > 10 µM

### Prompt Item CCOC(=O)N(c1cc(OC)c(Br)cc1OC)S(=O)(=O)c1ccc(OC)cc1 [Compound 27] has what recorded IC50?
### Response > 10 µM

### Prompt May I ask what IC50 has been recorded for COc1ccc(S(=O)(=O)N(C)c2cc(OC)c(Br)c(OC)c2)cc1 [Compound 8a] ?
### Response > 10 µM

### Prompt Looking for the measured IC50 of COc1ccc(S(=O)(=O)N(C)c2cc(OC)c(Br)cc2OC)cc1 [Compound 24] , can you help?
### Response 7.6 µM

### Prompt Recorded IC50 of COc1ccc(S(=O)(=O)Nc2cc(OC)c(OC)cc2OC)cc1 [Compound 32] , please.
### Response > 10 µM

### Prompt Requested read-out: IC50. Entry: COc1ccc(S(=O)(=O)N(C)c2cc(OC)c(OC)cc2OC)cc1 [Compound 33]
### Response > 10 µM

### Prompt Quick one: IC50 of COc1ccc(S(=O)(=O)N(Cc2ccccc2)c2cc(OC)c(Br)c(OC)c2Br)cc1 [Compound 10c] ?
### Response > 10 µM

### Prompt Can you share its IC50? I mean this molecule: COc1ccc(S(=O)(=O)Nc2cc(OC)c(Br)cc2OC)cc1 [Compound 23]
### Response 6.9 µM

### Prompt Query (molecule): COc1ccc(S(=O)(=O)Nc2ccc(OC)c(OC)c2)cc1 [Compound 11] ; field requested: IC50
### Response > 10 µM

### Prompt Reported IC50, molecule COc1ccc(S(=O)(=O)Nc2cc(OC)ccc2OC)cc1 [Compound 21] : ____
### Response > 10 µM

### Prompt Can you look up the measured IC50 of CCN(c1cc(OC)cc(OC)c1)S(=O)(=O)c1ccc(OC)cc1 [Compound 3] for me?
### Response > 10 µM

### Prompt Field request: IC50 | item: CCOC(=O)CN(c1cc(OC)c(Br)cc1OC)S(=O)(=O)c1ccc(OC)cc1 [Compound 26]
### Response > 10 µM

### Prompt Suppose we examine the molecule COc1ccc(S(=O)(=O)N(Cc2ccccc2)c2cc(OC)cc(OC)c2Br)cc1 [Compound 10b] ; what IC50 value has been reported?
### Response > 10 µM

### Prompt Please look up its IC50: COc1ccc(S(=O)(=O)N(CC#N)c2cc(OC)c(OC)cc2OC)cc1 [Compound 35]
### Response > 10 µM

### Prompt Looking for the measured IC50 of COc1ccc(S(=O)(=O)N(Cc2ccccc2)c2cc(OC)cc(OC)c2)cc1 [Compound 6] , can you help?
### Response > 10 µM

### Prompt I would be grateful if you could share the reported IC50 for COc1ccc(S(=O)(=O)N(Cc2ccccc2)c2cc(OC)c(OC)cc2OC)cc1 [Compound 37] .
### Response > 10 µM

### Prompt Entry under review: CCN(c1cc(OC)c(OC)cc1Br)S(=O)(=O)c1ccc(OC)cc1 [Compound 15] . Reported IC50?
### Response > 10 µM

### Prompt May I ask what IC50 has been recorded for CCN(c1cc(OC)cc(OC)c1Br)S(=O)(=O)c1ccc(OC)cc1 [Compound 9b] ?
### Response > 10 µM

### Prompt Which IC50 value is on record for COc1ccc(S(=O)(=O)N(Cc2ccccc2)c2cc(OC)c(OC)cc2Br)cc1 [Compound 18] ?
### Response > 10 µM

====

For each entry below, report its TPI % 10 µM value.
Target: microtubular protein isolated from calf brain (Bos taurus, UniProt P81947+Q6B856)
Construct: isolated from calf brain according to the modified Shelanski method; from tissue; host or cells: calf brain
Experiment: Inhibition of tubulin polymerisation (turbidity)
Type: biochemical
Details: 10 µM compound, 1.5 mg/mL microtubular protein
Procedure: Microtubular protein was isolated from calf brain according to the modified Shelanski method[23]^,[24] by two cycles of temperature-dependent assembly/disassembly and stored at −80 °C. Before each use, protein concentration is determined by Bradford method[25] taking BSA as standard. […] The assembly process was initiated by a temperature shift to 37 °C and the turbidity produced by tubulin polymerisation can be measured by an absorbance increase. […]

### Prompt # TPI % 10 µM lookup, item COc1ccc(S(=O)(=O)N(C)c2cc(OC)ccc2OC)cc1 [Compound 22]
### Response 4%

### Prompt Item under review: CCOC(=O)CN(c1cc(OC)cc(OC)c1)S(=O)(=O)c1ccc(OC)cc1 [Compound 5] . Reported TPI % 10 µM?
### Response 0%

### Prompt Please report the recorded TPI % 10 µM for CCN(c1cc(OC)cc(OC)c1Br)S(=O)(=O)c1ccc(OC)cc1 [Compound 9b] .
### Response 0%

### Prompt Which TPI % 10 µM is reported for this compound? COc1ccc(S(=O)(=O)N(CC#N)c2cc(OC)c(Br)cc2OC)cc1 [Compound 25]
### Response 51%

### Prompt // TPI % 10 µM lookup, key: COc1ccc(S(=O)(=O)Nc2cc(OC)c(Br)cc2OC)cc1 [Compound 23]
### Response 65%
